molecular target: T1, FimH lectin domain (residues Phe1-Thr158) (Escherichia coli, UniProt P08191 22-179); experiment: SPR; single-cycle kinetics on BIAcore T200; ω1-glycoprotein immobilised on a CM5 chip via primary amino groups (EDC/NHS); FimH as analyte at 14.4, 7.17, 3.60, 1.80, 0.9 μM; 20 mM Hepes, 150 mM NaCl, 0.005% Tween; 30 μl/min; 298 K; fit to the Langmuir 1:1 model; details: both partners purified
T1 construct: FimH type-1 fimbrial adhesin of Escherichia coli, lectin domain, residues Phe1-Thr158; No tag is mentioned; also called FimH adhesin; source: E. coli C43(DE3), pET24a vector, purified (sulfopropyl fast flow cation exchange chromatography)
T1 sequence (P08191 22-179): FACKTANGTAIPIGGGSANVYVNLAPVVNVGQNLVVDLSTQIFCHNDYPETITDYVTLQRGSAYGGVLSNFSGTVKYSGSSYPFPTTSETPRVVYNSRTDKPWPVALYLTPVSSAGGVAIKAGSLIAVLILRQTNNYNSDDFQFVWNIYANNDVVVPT
measurement-type: kon (M⁻¹ s⁻¹)
Number only, in M⁻¹ s⁻¹; omit the unit.

The reported value for omega-1 (ω1) glycoprotein carrying Man3Gn2F1[6] (natural protein, N-glycans Man3Gn2F1[6] (α1,6 core-fucosylated oligomannose-3); sites not stated) QNRWDYYVFSVTWPPTYCESIQCRLPRGLRDFTIHGLWPTIFPNRQPNCTGSLRFDIRRLQGIRNELDLMWPHLKNYRESPSFWKHEFEKHGLCAVEDPQVFNQYGYFKFGIKLMQKLNLLKTLMKYKISPHDSRQYDTINLMNVLEREFGYNGSANCIRKPGRRGMYHLEEVHVCLNRKHEFMNCPFLGNCPKKFIFPPFQ in terms of kon is 663
